Molecular target: Microphthalmia-associated transcription factor (Homo sapiens)
Experiment: MITF inhibitors, potency by titration, dose response, biochemical, AlphaScreen, human (AID 1259371)
Details: AlphaScreen biochemical MITF assay, signal inhibition
The source made the active and inactive calls. No rule for the calls is given here.
Classes used: t (active), f (inactive)

{"columns": ["Compound", "Measurement target", "Assigned label"],
 "data": [
  ["CC(=O)Nc1ccc(N2C(=O)c3ccccc3C2(O)Cc2ccccc2)cc1 (centres undefined)", "Microphthalmia-associated transcription factor (Homo sapiens)", "f"],
  ["O=C1S/C(=C\\c2ccco2)C(=O)N1c1ccccc1Cl", "Microphthalmia-associated transcription factor (Homo sapiens)", "t"],
  ["Cn1c(SCc2cc(=O)n3c(n2)sc2ccccc23)nnc1C(F)(F)F", "Microphthalmia-associated transcription factor (Homo sapiens)", "f"],
  ["CN(C)CCCNC(=O)c1cccc(CN(C(=O)c2nc3ccc(-c4cn[nH]c4)cc3s2)C2CC2)c1", "Microphthalmia-associated transcription factor (Homo sapiens)", "f"],
  ["COCCNC(=O)COC(=O)c1cc(-c2ccco2)nc2ccccc12", "Microphthalmia-associated transcription factor (Homo sapiens)", "f"],
  ["COc1ccc(C)cc1NC(=O)C(NCC(O)c1ccccc1)c1ccccc1 (centres undefined)", "Microphthalmia-associated transcription factor (Homo sapiens)", "f"],
  ["CCOC(=O)C1C2NC(=S)N(CC)C1(C)Oc1ccc(Br)cc12 (centres undefined)", "Microphthalmia-associated transcription factor (Homo sapiens)", "f"],
  ["C/C(=N\\NC(=O)CC1=NNC(=O)C1)c1ccco1", "Microphthalmia-associated transcription factor (Homo sapiens)", "f"],
  ["N=C1S/C(=C\\c2ccco2)C(=O)N1c1nonc1N", "Microphthalmia-associated transcription factor (Homo sapiens)", "t"],
  ["C[C@H]1NC(=O)[C@H]2CN(C(=O)NCc3ccccc3)CCN2C1=O", "Microphthalmia-associated transcription factor (Homo sapiens)", "f"],
  ["O=C(c1ccc([N+](=O)[O-])cc1)N1CCN(Cc2cccc3ccccc23)CC1", "Microphthalmia-associated transcription factor (Homo sapiens)", "f"],
  ["CC(C)[C@H]1NC(=O)[C@H]2CN(C(=O)NC3CCCCC3)CCN2C1=O", "Microphthalmia-associated transcription factor (Homo sapiens)", "f"],
  ["O=C(NCCO)c1cccc(-c2cccs2)c1", "Microphthalmia-associated transcription factor (Homo sapiens)", "f"],
  ["O=C(CSc1nsc(SCC(=O)Nc2ccc(Cl)c(Cl)c2)n1)Nc1ccc(Cl)c(Cl)c1", "Microphthalmia-associated transcription factor (Homo sapiens)", "f"],
  ["Cc1cccc(N2CCN(C(=O)/C=C\\C(=O)O)CC2)c1C", "Microphthalmia-associated transcription factor (Homo sapiens)", "f"],
  ["C[C@@H]1NC(=O)[C@H]2CN(C(=O)NC3CCCCC3)CCN2C1=O", "Microphthalmia-associated transcription factor (Homo sapiens)", "f"],
  ["COc1ccccc1C1(NC(=O)CCCCC2SCC3NC(=O)NC32)CCCC1 (centres undefined)", "Microphthalmia-associated transcription factor (Homo sapiens)", "f"],
  ["O=C(/C=C/c1ccco1)NCC(=O)N/N=C/c1ccc(C(=O)O)cc1", "Microphthalmia-associated transcription factor (Homo sapiens)", "f"],
  ["CC(C)[C@@H]1NC(=O)[C@H]2CN(C(=O)NC3CCCCC3)CCN2C1=O", "Microphthalmia-associated transcription factor (Homo sapiens)", "f"],
  ["O=C(O)c1cc(C(=O)O)cc(-c2ccc(/C=N\\n3cnnc3)o2)c1", "Microphthalmia-associated transcription factor (Homo sapiens)", "f"],
  ["O=C(NCCN1CCOCC1)c1cccc(CN(C(=O)c2nc3ccc(-c4cn[nH]c4)cc3s2)C2CC2)c1", "Microphthalmia-associated transcription factor (Homo sapiens)", "f"],
  ["O=C(COC(=O)c1cc(-c2ccco2)nc2ccccc12)NC1CC1", "Microphthalmia-associated transcription factor (Homo sapiens)", "f"],
  ["CN1CCN(C(=O)c2ccc(-c3nc(Nc4ccccc4)c4ncn(C5CCCCC5)c4n3)cc2)CC1", "Microphthalmia-associated transcription factor (Homo sapiens)", "f"],
  ["Cc1cc(/C=C2/C=CC(=O)O2)oc1C", "Microphthalmia-associated transcription factor (Homo sapiens)", "t"],
  ["O=C1OC(c2cc(C3=N/C(=C\\c4ccccc4)C(=O)O3)cc(C3=N/C(=C/c4ccccc4)C(=O)O3)c2)=N/C1=C\\c1ccccc1", "Microphthalmia-associated transcription factor (Homo sapiens)", "t"],
  ["CCOC(=O)C1C2NC(=S)N(CC)C1(C)Oc1ccc(Cl)cc12 (centres undefined)", "Microphthalmia-associated transcription factor (Homo sapiens)", "f"],
  ["C/C=C\\C1=C(C(=O)O)N2C(=O)C(NC(=O)C(N)c3ccc(O)cc3)C2SC1 (centres undefined)", "Microphthalmia-associated transcription factor (Homo sapiens)", "f"],
  ["O=C(c1ccc(=O)oc1)N1CCc2ccccc21", "Microphthalmia-associated transcription factor (Homo sapiens)", "f"],
  ["COC(=O)C1=C(C(=O)OC)C2c3ccccc3C=CN2C(C(=O)OC)=C1C(=O)OC (centres undefined)", "Microphthalmia-associated transcription factor (Homo sapiens)", "f"],
  ["O=C1N[C@@H](Cc2ccccc2)C(=O)N2CCN(C(=O)NCc3ccccc3)C[C@H]12", "Microphthalmia-associated transcription factor (Homo sapiens)", "f"],
  ["Cc1ccc(S(=O)(=O)C(CNC(=O)c2ccco2)c2cccs2)cc1 (centres undefined)", "Microphthalmia-associated transcription factor (Homo sapiens)", "f"],
  ["O=C(NCCc1ccc(O)cc1)c1cccc(-c2cccs2)c1", "Microphthalmia-associated transcription factor (Homo sapiens)", "f"],
  ["Cc1ccc(-c2ncn(-c3ccc(Nc4cc(-n5cnc(Nc6ccccc6)n5)c(F)cn4)cc3)n2)cn1", "Microphthalmia-associated transcription factor (Homo sapiens)", "f"],
  ["CC1=C(C#N)C(c2cc3c(cc2[N+](=O)[O-])OCO3)C2=C(CCCC2=O)N1 (centres undefined)", "Microphthalmia-associated transcription factor (Homo sapiens)", "f"]
]}

---

Target: Microphthalmia-associated transcription factor (Homo sapiens)
Experiment: MITF inhibitors, potency by titration, dose response, biochemical, AlphaScreen, human (AID 1259371)
Details: AlphaScreen biochemical MITF assay, signal inhibition
The source made the active and inactive calls. The rule behind the calls is not given here.
Observable: IC50

{"columns": ["Compound", "Measured value"],
 "data": [
  ["CCN(C(=O)C1COc2ccccc2O1)C12CC3CC(CC(C3)C1)C2 (centres undefined)", "inactive"],
  ["CCc1ccc(CN2CCN(Cc3cc(OC)c(O)c(OC)c3)CC2)cc1", "> 5.79 µM (inactive)"],
  ["CC(C)[C@H]1NC(=O)[C@H]2CN(C(=O)NCc3ccccc3)CCN2C1=O", "inactive"],
  ["O=C(NCc1cccnc1)c1ccnc(-c2cccs2)c1", "inactive"]
]}

Data provenance: PubChem BioAssay AID1259371
